# abundance fitness annotations
B1: Double-stranded RNA-binding protein Staufen homolog 1, residues 183 to 249; numbered along this chain, O95793 (parent)
chain: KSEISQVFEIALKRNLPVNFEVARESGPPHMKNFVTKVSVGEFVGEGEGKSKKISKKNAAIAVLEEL

Variants of: B1
ASSAY_NAME: abundance fitness (aPCA) (normalised: wild type 0, dead -1); higher = more abundant; growth selection in yeast, the domain comes from the species named
CONDITION_DESCRIPTION: Homo sapiens
QUANTITY: abundance fitness

# SEQ_TEXT, QUANTITY, NUMERIC_RESULT
records = [
    ("KSEISQVFEIALKRNLPVNFEVARESGPPHMKNFVTKVSVGSFVGEGEGKSKKISKKNAAIAVLEEL [E42S]", "abundance fitness", 0.028),
    ("KSEISQVFEIALKRNLPVNMEVARESGPPHMKNFVTKVSVGEFVGEGEGKSKKISKKNAAIAVLEEL [F20M]", "abundance fitness", -0.305),
    ("KSEISQVFEIALKRNLPVNFEVARESGPPHMKNFVTKVSVGEFVGEGEGKSKKISKKNAAIPVLEEL [A62P]", "abundance fitness", -0.56),
    ("KSEISQVFEIALKRNLPCNFEVARESGPPHMKNFVTKVSVGEFVGEGEGKSKKISKKNAAIAVLEEL [V18C]", "abundance fitness", -0.218),
    ("KSEISQVFEIALKRNLIVNFEVARESGPPHMKNFVTKVSVGEFVGEGEGKSKKISKKNAAIAVLEEL [P17I]", "abundance fitness", -0.323),
    ("KSEISQVFEIALKRNLPVNFEVARESGPPHMKNFVTKVSVGESVGEGEGKSKKISKKNAAIAVLEEL [F43S]", "abundance fitness", -0.272),
    ("KSEISQVFEIALKRNLPVNFEVARESGPPHMKNFVNKVSVGEFVGEGEGKSKKISKKNAAIAVLEEL [T36N]", "abundance fitness", -0.674),
    ("KSEISQVFEIALKRNLPVNFEVARESGPPHMKNFVTKVSVPEFVGEGEGKSKKISKKNAAIAVLEEL [G41P]", "abundance fitness", -0.645),
    ("KSEISQKFEIALKRNLPVNFEVARESGPPHMKNFVTKVSVGEFVGEGEGKSKKISKKNAAIAVLEEL [V7K]", "abundance fitness", -0.586),
    ("KSEISQVFIIALKRNLPVNFEVARESGPPHMKNFVTKVSVGEFVGEGEGKSKKISKKNAAIAVLEEL [E9I]", "abundance fitness", -0.552),
    ("KSEISQVFEIALKRNLPVNFEVARESGPPHMKNKVTKVSVGEFVGEGEGKSKKISKKNAAIAVLEEL [F34K]", "abundance fitness", -0.725),
    ("KSEISQVFEIALKRNLPVNFEVARESGPPHMKNFVTKVSVGEFVGEGEGKSKKISKKGAAIAVLEEL [N58G]", "abundance fitness", -0.655),
    ("KSEISQVFEIALKRNLPVNYEVARESGPPHMKNFVTKVSVGEFVGEGEGKSKKISKKNAAIAVLEEL [F20Y]", "abundance fitness", -0.291),
    ("KSEISQVFEIALKRNLPVNFEVAPESGPPHMKNFVTKVSVGEFVGEGEGKSKKISKKNAAIAVLEEL [R24P]", "abundance fitness", -0.035),
    ("KSEISQVFEIAQKRNLPVNFEVARESGPPHMKNFVTKVSVGEFVGEGEGKSKKISKKNAAIAVLEEL [L12Q]", "abundance fitness", 0.01),
    ("KSEISQVFEIALKMNLPVNFEVARESGPPHMKNFVTKVSVGEFVGEGEGKSKKISKKNAAIAVLEEL [R14M]", "abundance fitness", 0.014),
    ("KSEISQVFAIALKRNLPVNFEVARESGPPHMKNFVTKVSVGEFVGEGEGKSKKISKKNAAIAVLEEL [E9A]", "abundance fitness", -0.057),
    ("KSEISQVFEIALKRNLPVNFEVARESGPPHMKNFVTKVSVGELVGEGEGKSKKISKKNAAIAVLEEL [F43L]", "abundance fitness", -0.126),
    ("CSEISQVFEIALKRNLPVNFEVARESGPPHMKNFVTKVSVGEFVGEGEGKSKKISKKNAAIAVLEEL [K1C]", "abundance fitness", -0.177),
    ("KSEISQVFEIALKRNLPVNFEMARESGPPHMKNFVTKVSVGEFVGEGEGKSKKISKKNAAIAVLEEL [V22M]", "abundance fitness", -0.081),
    ("KSEISQVFEIALKRNLPVNFEVARESGPPHMKNFVTKVSVGEFVGEGEGKSKKYSKKNAAIAVLEEL [I54Y]", "abundance fitness", -0.642),
    ("KSEISQVFEIALKRNLPVNFEVARESGPPHMKNFVTKVSVGEFVGEGEGKSKFISKKNAAIAVLEEL [K53F]", "abundance fitness", -0.175),
    ("KSEISQVFEIALKRNLPVNFEVARESGPPHMKNFVTKVSVGEFVGEGEGKSKKISKKNAAGAVLEEL [I61G]", "abundance fitness", -0.184),
    ("KSEISQVFEIALKRNLPVNFEVARESGPPHMKNFVTKVSVGEFVGEGEGKSKKISKKNCAIAVLEEL [A59C]", "abundance fitness", -0.663),
    ("KSEISQVFEIALKRNLPVNFEVARESGPPHMKNFVTKVSVGEFKGEGEGKSKKISKKNAAIAVLEEL [V44K]", "abundance fitness", -0.016),
    ("KSEISQVFEIAWKRNLPVNFEVARESGPPHMKNFVTKVSVGEFVGEGEGKSKKISKKNAAIAVLEEL [L12W]", "abundance fitness", -0.063),
    ("KSEISQVFEIALKRNLPVNFEYARESGPPHMKNFVTKVSVGEFVGEGEGKSKKISKKNAAIAVLEEL [V22Y]", "abundance fitness", -0.094),
    ("KSEISQVFEIALKRNLPVNFEVARESGEPHMKNFVTKVSVGEFVGEGEGKSKKISKKNAAIAVLEEL [P28E]", "abundance fitness", -0.153),
    ("KSEISQVFEIALKRNLPVNFEVARESGPPHMKNFVTKVSVGEFFGEGEGKSKKISKKNAAIAVLEEL [V44F]", "abundance fitness", -0.195),
    ("KSEISQVFEIALKRNLPVNFEVARESGPPHMKNFVTKVSVGEFVGEGEGKSKKISKKNAAIAVKEEL [L64K]", "abundance fitness", -0.472),
    ("KSEISQVFEIALKRNLPVNFEVARESGPPHMKNFVTKVSVGEFVGEGEGKSKKISKKNAAIAVLREL [E65R]", "abundance fitness", 0.093),
    ("KSEISQVFEIALKRNLPVNFEVARESGPPHMKNFVTKVSVDEFVGEGEGKSKKISKKNAAIAVLEEL [G41D]", "abundance fitness", -0.761),
    ("KSEISQVFEIALKRNLPVNFEVARESGPPHMKNFVTKVSVGEFVGEGEGKSKKISKKNAAIAWLEEL [V63W]", "abundance fitness", -0.818),
    ("KSEISQVFEIALKRNLPVNFEVARESGPPHMKNFVTKVSVGEFVGEGEGKSKNISKKNAAIAVLEEL [K53N]", "abundance fitness", -0.243),
    ("KSEISQVFEIALKRNLPVNFEVARESGPPHMKNFVTKVSVGEFVGEGEGDSKKISKKNAAIAVLEEL [K50D]", "abundance fitness", -0.17),
    ("KSEISQVFEIALKRNLPVDFEVARESGPPHMKNFVTKVSVGEFVGEGEGKSKKISKKNAAIAVLEEL [N19D]", "abundance fitness", -0.229),
    ("KSEISQVFEIALKRNLPVNFEVARESGPPHMKNFVTKVSVGEFVGQGEGKSKKISKKNAAIAVLEEL [E46Q]", "abundance fitness", 0.051),
    ("KSEISQVFEIALKRNLPVNFEVARESGPPHMKNFVTKVSVGEFVGEGEWKSKKISKKNAAIAVLEEL [G49W]", "abundance fitness", -1.14),
    ("KSEISQVFEIALKRNLPVNFEVAGESGPPHMKNFVTKVSVGEFVGEGEGKSKKISKKNAAIAVLEEL [R24G]", "abundance fitness", -0.196),
    ("KSEISQVFEIALKRNLPVNFEVARESGPPHMKNFVTKVSVGEFVGEGEGKSKKISKKNAAIAALEEL [V63A]", "abundance fitness", -0.246),
    ("KSEISQVFEIALKRNLPVGFEVARESGPPHMKNFVTKVSVGEFVGEGEGKSKKISKKNAAIAVLEEL [N19G]", "abundance fitness", -0.323),
    ("KSEISQVFEIALKRNLPVNFEVARESGPPHMKNFVTKVSVGEFVNEGEGKSKKISKKNAAIAVLEEL [G45N]", "abundance fitness", -0.594),
    ("KSEISQVFEIALKRNLPVNFEVARESGPPHMKNFVTKVSVGEFVGEGEGKSKKISHKNAAIAVLEEL [K56H]", "abundance fitness", -0.743),
    ("KSEISQVFEIALKRNLPVNFEVARESGPPHMKNFVTKVSVGEFVGEGHGKSKKISKKNAAIAVLEEL [E48H]", "abundance fitness", -0.061),
    ("KSEISQVFEIALKRNLPDNFEVARESGPPHMKNFVTKVSVGEFVGEGEGKSKKISKKNAAIAVLEEL [V18D]", "abundance fitness", -0.746),
    ("KSEISQVFEIALKRNLPVNFEVARESGPPHMKNFVTKVSVGEFVGEGEGKSKKISKKNTAIAVLEEL [A59T]", "abundance fitness", -0.869),
]

Ref: the Human Domainome abundance scans (Beltran et al. 2025)
